Biological target: overexpressed PRDX6 (Homo sapiens)
Sequence (P30041 2-224): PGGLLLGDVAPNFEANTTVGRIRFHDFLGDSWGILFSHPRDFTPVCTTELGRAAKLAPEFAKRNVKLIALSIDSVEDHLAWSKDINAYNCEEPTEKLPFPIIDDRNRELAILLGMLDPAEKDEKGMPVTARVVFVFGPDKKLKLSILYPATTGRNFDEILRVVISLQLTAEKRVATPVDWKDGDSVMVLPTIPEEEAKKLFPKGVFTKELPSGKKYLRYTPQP
Assay: H2O2 clearance
Type: cell-based
Property Label: IC50 (µM)
Numbers only, in µM.

Ask: Would you mind telling me what IC50 value was observed for O=c1cc(-c2ccc(O)cc2)oc2cc(O)cc(O)c12 [apigenin, 4’,5,7-trihydroxyflavone] ?
Reply: 49.5

* * *

Molecular target: PRDX6 with GFP tag (Homo sapiens, UniProt P30041, C91A)
Sequence (P30041 2-224 C91A): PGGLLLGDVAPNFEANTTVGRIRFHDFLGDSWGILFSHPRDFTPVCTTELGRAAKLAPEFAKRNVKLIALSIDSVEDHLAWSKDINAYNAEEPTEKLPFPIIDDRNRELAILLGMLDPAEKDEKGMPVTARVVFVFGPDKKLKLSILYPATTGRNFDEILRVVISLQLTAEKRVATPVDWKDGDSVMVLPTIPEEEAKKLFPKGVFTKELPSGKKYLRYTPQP
Test: cellular microscale thermophoresis, GFP fusion
Property Label: Kd (µM)
One number for each entry, in µM.

Ask: If you can, please state the reported Kd value of O=c1cc(-c2ccc(O)cc2)oc2cc(O)cc(O)c12 [apigenin, 4’,5,7-trihydroxyflavone] .
Reply: 10.9
